- System: Septoria tritici
- assay-protocol: Test C: wheat leaf blotch, preventive spray on wheat seedlings, visual disease rating
- Format: in vivo
- condition-parameters: Zymoseptoria tritici, 504 h, 40 ppm (*), 100 = 100% disease control
Reported values of pest or weed control at 40 ppm for individual entries
Quick note: unit goes after the number.

Solved entries:
COC(=O)NCc1cc(-c2ncn(-c3ccc(OC)cc3Cl)n2)ccc1C [Compound 78] : 93%
COC(=O)NCc1cc(-c2ncn(-c3ccc(OC)cc3OC)n2)ccc1C [Compound 54] : 49%
COC(=O)NCc1cc(-n2ccc(-c3ccc(C)nc3C)n2)ccc1C [Compound 130] : 86%

Request: Look up pest or weed control at 40 ppm for this compound: COC(=O)NCc1cc(-c2ncn(-c3ccc(OC)cc3C)n2)ccc1C [Compound 70]
Result: 96%

Request: Repeat with COC(=O)NCc1cc(-n2ccc(-c3ccc(C)cc3C)n2)ccc1C [Compound 38]
Result: 100%

Request: Repeat with COC(=O)NCc1cc(-c2ncn(-c3ccc(OC)cc3F)n2)ccc1C [Compound 79]
Result: 95%

Request: Repeat with COC(=O)NCc1cc(-c2ccn(-c3ccc(C)nc3C)n2)ccc1C [Compound 114]
Result: 86%

---

- System: Puccinia recondita f sp. tritici
- assay-protocol: Test B: wheat leaf rust, preventive spray on wheat seedlings, visual disease rating
- Format: in vivo
- condition-parameters: 200 ppm, 100 = 100% disease control
Reported values of Test B disease control rating for individual entries
Answer in %, number only, no unit symbol.

Solved entries:
C#CCOc1cc(OC)ccc1-c1ccn(-c2ccc(C)c(CNC(=O)OC)c2)n1 : 100
COC(=O)NCc1cc(-c2ccn(-c3ccc(OC)cc3OC)n2)ccc1C : 100
COC(=O)NCc1cc(-c2ccn(-c3ccc(OC)cc3[N+](=O)[O-])n2)ccc1C : 100

Request: Look up Test B disease control rating for this compound: COC(=O)NCc1cc(-c2ccn(-c3ccc(Cl)cc3OCC#N)n2)ccc1C
Result: 100

Request: Repeat with COC(=O)NCc1cc(-c2ccn(-c3ccc(C#N)cc3C#N)n2)ccc1C
Result: 0

---

- Test system: Erysiphe graminis f. sp. tritici
- assay-protocol: Test A: wheat powdery mildew, preventive spray on wheat seedlings, visual disease rating
- Type: in vivo
- condition-parameters: 40 ppm (*), 100 = 100% disease control
Marks after values point to notes of the source that are not given here.
Reported values of Test A disease control rating for individual entries

COCCOc1ccc(-n2ccc(-c3ccc(C)c(CNC(=O)OC)c3)n2)c(C)c1 : 87* %
COC(=O)NCc1cc(-n2ncc(-c3ccc(OCC#N)cc3C)n2)ccc1C : 90* %
COC(=O)NCc1cc(-n2ccc(-c3ccc(Cl)cc3Br)n2)ccc1C : 97* %
COC(=O)NCc1cc(-c2ccn(-c3ccc(C(C)(C)C)cc3C)n2)ccc1C : 99* %
CCOc1cc(C)ccc1-c1ccn(-c2ccc(C)c(CNC(=O)OC)c2)n1 : 99* %
COC(=O)NCc1cc(-n2ccc(-c3ccc(I)cc3Cl)n2)ccc1C : 99* %
COC(=O)NCc1cc(-n2ccc(-c3ccc(Cl)cc3OCC#N)n2)ccc1C : 93* %
COC(=O)NCc1cc(-n2ccc(-c3ccc(F)cc3Cl)n2)ccc1C : 100* %

Alright, here's another compound for you.
Request: Any idea what Test A disease control rating came out for COC(=O)NCc1cc(-n2ccc(-c3ccc(C)nc3Cl)n2)ccc1C on Erysiphe graminis f. sp. tritici?
Result: 98* %
